Measured IC50 by item
Target: Voltage-gated inwardly rectifying potassium channel KCNH2 (Homo sapiens, UniProt Q12809)
Sequence (Q12809 whole entry): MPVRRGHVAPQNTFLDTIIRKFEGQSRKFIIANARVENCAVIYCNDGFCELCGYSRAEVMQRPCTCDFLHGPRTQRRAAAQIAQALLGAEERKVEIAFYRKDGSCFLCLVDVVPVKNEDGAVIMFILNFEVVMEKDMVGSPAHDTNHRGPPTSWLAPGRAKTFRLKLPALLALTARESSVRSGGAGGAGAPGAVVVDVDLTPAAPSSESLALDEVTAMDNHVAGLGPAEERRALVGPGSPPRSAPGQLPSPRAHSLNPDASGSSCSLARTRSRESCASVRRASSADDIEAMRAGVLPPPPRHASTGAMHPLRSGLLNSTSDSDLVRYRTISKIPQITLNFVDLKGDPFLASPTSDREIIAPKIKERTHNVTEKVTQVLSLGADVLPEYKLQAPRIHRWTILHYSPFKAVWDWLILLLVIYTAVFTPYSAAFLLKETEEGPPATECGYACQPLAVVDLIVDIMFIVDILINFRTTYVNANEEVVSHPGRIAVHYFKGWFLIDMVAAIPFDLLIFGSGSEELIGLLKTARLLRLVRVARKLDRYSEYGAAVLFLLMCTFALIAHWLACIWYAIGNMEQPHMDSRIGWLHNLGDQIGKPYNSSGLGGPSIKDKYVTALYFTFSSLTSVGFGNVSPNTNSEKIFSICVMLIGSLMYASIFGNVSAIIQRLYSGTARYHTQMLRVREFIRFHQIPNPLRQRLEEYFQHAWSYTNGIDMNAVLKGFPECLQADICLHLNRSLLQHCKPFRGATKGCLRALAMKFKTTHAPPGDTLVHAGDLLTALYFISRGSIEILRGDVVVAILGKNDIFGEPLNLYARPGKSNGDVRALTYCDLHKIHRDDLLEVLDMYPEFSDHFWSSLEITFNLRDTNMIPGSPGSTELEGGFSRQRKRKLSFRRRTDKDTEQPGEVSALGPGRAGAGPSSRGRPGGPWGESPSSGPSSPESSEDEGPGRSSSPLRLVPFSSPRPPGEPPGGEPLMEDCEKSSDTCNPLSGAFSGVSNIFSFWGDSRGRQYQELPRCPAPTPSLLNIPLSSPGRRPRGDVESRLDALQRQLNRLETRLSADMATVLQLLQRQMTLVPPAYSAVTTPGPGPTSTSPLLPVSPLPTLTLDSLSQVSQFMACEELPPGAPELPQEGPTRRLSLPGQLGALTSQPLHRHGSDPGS
Assay: Displacement of [3H]dofetilide from human ERG expressed in CHO-K1 cell membrane measured after 45 mins by topcount scintillation counting method
Value expressed in nM; do not type the unit.

Example entries begin here.
O=C(NCCN1CCC[C@@H]1Cn1nc(Cc2ccc(Cl)cc2)c2ccccc2c1=O)C1CCOCC1	794
CCCNC(=O)CCCN1CCC[C@@H]1Cn1nc(Cc2ccc(Cl)cc2)c2ccccc2c1=O	1.58
CC(C)C(=O)NCCN1CCC[C@@H]1Cn1nc(Cc2ccc(Cl)cc2)c2ccccc2c1=O	398

INPUT: I would be grateful if you could share the reported IC50 for COCCNC(=O)CCCN1CCC[C@@H]1Cn1nc(Cc2ccc(Cl)cc2)c2ccccc2c1=O .
OUTPUT: 39.8

INPUT: I would be grateful if you could share the reported IC50 for COCCCC(=O)N(C)CCN1CCC[C@@H]1Cn1nc(Cc2ccc(Cl)cc2)c2ccccc2c1=O .
OUTPUT: 398

====

Measured Kb by item
Target: Histamine H1 receptor (Homo sapiens)
Sequence (P35367 whole entry): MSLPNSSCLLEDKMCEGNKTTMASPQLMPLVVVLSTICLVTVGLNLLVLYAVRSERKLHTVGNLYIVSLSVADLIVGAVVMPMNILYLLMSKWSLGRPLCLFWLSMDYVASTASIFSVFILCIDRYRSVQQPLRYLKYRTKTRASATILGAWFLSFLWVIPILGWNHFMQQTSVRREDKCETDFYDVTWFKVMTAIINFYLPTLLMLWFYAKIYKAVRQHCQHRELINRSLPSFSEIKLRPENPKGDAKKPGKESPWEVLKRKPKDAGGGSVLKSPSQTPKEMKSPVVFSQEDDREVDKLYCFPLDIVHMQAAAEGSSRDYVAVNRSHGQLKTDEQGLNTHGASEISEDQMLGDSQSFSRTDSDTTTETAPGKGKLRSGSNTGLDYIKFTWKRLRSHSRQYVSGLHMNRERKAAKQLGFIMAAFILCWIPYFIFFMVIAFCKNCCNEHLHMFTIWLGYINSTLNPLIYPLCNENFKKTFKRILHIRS
Assay: Antagonist potency at human H1 receptor
Details: read-out: pA2 (converted)
Value expressed in pM; do not type the unit.

Example entries begin here.
COCCNC(=O)CCCN1CCC[C@@H]1Cn1nc(Cc2ccc(Cl)cc2)c2ccccc2c1=O	501
CC(C)C(=O)NCCN1CCC[C@@H]1Cn1nc(Cc2ccc(Cl)cc2)c2ccccc2c1=O	132
CCCNC(=O)CCCN1CCC[C@@H]1Cn1nc(Cc2ccc(Cl)cc2)c2ccccc2c1=O	158
CCCC(=O)NCCN1CCC[C@@H]1Cn1nc(Cc2ccc(Cl)cc2)c2ccccc2c1=O	631

INPUT: I would be grateful if you could share the reported Kb for CCC(=O)NCCN1CCC[C@@H]1Cn1nc(Cc2ccc(Cl)cc2)c2ccccc2c1=O .
OUTPUT: 251

INPUT: I would be grateful if you could share the reported Kb for COCCCC(=O)N(C)CCN1CCC[C@@H]1Cn1nc(Cc2ccc(Cl)cc2)c2ccccc2c1=O .
OUTPUT: 100

INPUT: I would be grateful if you could share the reported Kb for COCCC(=O)NCCN1CCC[C@@H]1Cn1nc(Cc2ccc(Cl)cc2)c2ccccc2c1=O .
OUTPUT: 501

INPUT: I would be grateful if you could share the reported Kb for O=C(NCCN1CCC[C@@H]1Cn1nc(Cc2ccc(Cl)cc2)c2ccccc2c1=O)C1CCCC1 .
OUTPUT: 316

INPUT: I would be grateful if you could share the reported Kb for COCC(=O)NCCN1CCC[C@@H]1Cn1nc(Cc2ccc(Cl)cc2)c2ccccc2c1=O .
OUTPUT: 200

INPUT: I would be grateful if you could share the reported Kb for O=C(NCCN1CCC[C@@H]1Cn1nc(Cc2ccc(Cl)cc2)c2ccccc2c1=O)C1CCOCC1 .
OUTPUT: 794

====

Measured pKi by item
Target: UniProt:P35367
Test: Antagonist activity against recombinant human H1 receptor expressed in CHO cells incubated for 30 mins by FLIPR analysis
Convention used: pKi is expressed as -log10 of the molar concentration.

CCC(=O)NCCN1CCC[C@@H]1Cn1nc(Cc2ccc(Cl)cc2)c2ccccc2c1=O	9.20
CC(C)C(=O)NCCN1CCC[C@@H]1Cn1nc(Cc2ccc(Cl)cc2)c2ccccc2c1=O	8.40
O=C(NCCN1CCC[C@@H]1Cn1nc(Cc2ccc(Cl)cc2)c2ccccc2c1=O)C1CCCC1	8.40
COCCCC(=O)N(C)CCN1CCC[C@@H]1Cn1nc(Cc2ccc(Cl)cc2)c2ccccc2c1=O	8.50
COCC(=O)NCCN1CCC[C@@H]1Cn1nc(Cc2ccc(Cl)cc2)c2ccccc2c1=O	8.90
CCCC(=O)NCCN1CCC[C@@H]1Cn1nc(Cc2ccc(Cl)cc2)c2ccccc2c1=O	9.10

INPUT: I would be grateful if you could share the reported pKi for O=C(NCCN1CCC[C@@H]1Cn1nc(Cc2ccc(Cl)cc2)c2ccccc2c1=O)C1CCOCC1 .
OUTPUT: 8.00

INPUT: I would be grateful if you could share the reported pKi for COCCNC(=O)CCCN1CCC[C@@H]1Cn1nc(Cc2ccc(Cl)cc2)c2ccccc2c1=O .
OUTPUT: 9.10

INPUT: I would be grateful if you could share the reported pKi for CCCNC(=O)CCCN1CCC[C@@H]1Cn1nc(Cc2ccc(Cl)cc2)c2ccccc2c1=O .
OUTPUT: 8.30

INPUT: I would be grateful if you could share the reported pKi for COCCC(=O)NCCN1CCC[C@@H]1Cn1nc(Cc2ccc(Cl)cc2)c2ccccc2c1=O .
OUTPUT: 9.10

====

Assay: Elimination half life in Beagle dog at 2 mg/kg, po and 1 mg/kg, iv
Format: ADME, organism-based, Canis lupus familiaris
Conditions: in vivo, read-out: beta t1/2 (converted)
observable: half-life (min)
Value expressed in min; do not type the unit.

INPUT: I would be grateful if you could share the reported half-life for COCCCC(=O)NCCN1CCC[C@@H]1Cn1nc(Cc2ccc(Cl)cc2)c2ccccc2c1=O.O=C(O)C(F)(F)F .
OUTPUT: 30

====

Experiment: Distribution coefficient, log D of compound in n-octanol and phosphate buffered saline at pH 7.4 by HPLC analysis
Assay type: physicochemical
Binary label based on logD with cut-off 3: below gives satisfied, not below gives not satisfied.

CC(C)C(=O)NCCN1CCC[C@@H]1Cn1nc(Cc2ccc(Cl)cc2)c2ccccc2c1=O	not satisfied
COCCC(=O)NCCN1CCC[C@@H]1Cn1nc(Cc2ccc(Cl)cc2)c2ccccc2c1=O	not satisfied
COCCNC(=O)CCCN1CCC[C@@H]1Cn1nc(Cc2ccc(Cl)cc2)c2ccccc2c1=O	satisfied
O=C(NCCN1CCC[C@@H]1Cn1nc(Cc2ccc(Cl)cc2)c2ccccc2c1=O)C1CCCC1	not satisfied

Let us examine a further case.
INPUT: Problem: For the molecule CCCC(=O)NCCN1CCC[C@@H]1Cn1nc(Cc2ccc(Cl)cc2)c2ccccc2c1=O , is logD under 3?
OUTPUT: not satisfied

====

Experiment: Elimination half life in CD Sprague-Dawley rat at 3 mg/kg, po and 1 mg/kg, iv
Assay type: ADME, organism-based
Settings: in vivo, read-out: beta t1/2 (converted)
observable: half-life (min)
Value expressed in min; do not type the unit.

INPUT: I would be grateful if you could share the reported half-life for COCCCC(=O)NCCN1CCC[C@@H]1Cn1nc(Cc2ccc(Cl)cc2)c2ccccc2c1=O.O=C(O)C(F)(F)F .
OUTPUT: 12

====

Test: Oral bioavailability in CD Sprague-Dawley rat at 300 mg/kg
Format: ADME, organism-based
Conditions: in vivo
observable: bioavailability

INPUT: I would be grateful if you could share the reported bioavailability for COCCCC(=O)NCCN1CCC[C@@H]1Cn1nc(Cc2ccc(Cl)cc2)c2ccccc2c1=O.Cl .
OUTPUT: < 3%

====

Target: Alpha-1B adrenergic receptor (Homo sapiens)
Sequence (P35368 whole entry): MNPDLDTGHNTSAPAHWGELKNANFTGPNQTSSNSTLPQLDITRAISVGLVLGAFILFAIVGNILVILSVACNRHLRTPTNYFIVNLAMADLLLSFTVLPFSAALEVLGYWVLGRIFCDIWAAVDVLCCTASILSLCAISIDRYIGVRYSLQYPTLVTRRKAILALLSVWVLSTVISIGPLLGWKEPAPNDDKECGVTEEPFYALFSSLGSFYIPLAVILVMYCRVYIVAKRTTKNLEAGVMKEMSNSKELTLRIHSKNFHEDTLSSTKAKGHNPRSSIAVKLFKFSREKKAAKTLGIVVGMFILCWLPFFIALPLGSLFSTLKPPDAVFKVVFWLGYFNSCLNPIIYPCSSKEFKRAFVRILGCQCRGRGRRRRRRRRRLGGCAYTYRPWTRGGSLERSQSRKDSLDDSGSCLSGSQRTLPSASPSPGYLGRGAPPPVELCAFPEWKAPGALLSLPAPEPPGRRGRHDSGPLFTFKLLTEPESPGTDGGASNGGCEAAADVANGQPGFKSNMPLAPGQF
Experiment: Antagonist activity against recombinant human adrenergic alpha1B receptor expressed in CHO cells incubated for 30 mins by FLIPR analysis
Measured log10 of Ki by item
In our notation, the value equals log10 of Ki in nM.

Example entries begin here.
O=C(NCCN1CCC[C@@H]1Cn1nc(Cc2ccc(Cl)cc2)c2ccccc2c1=O)C1CCCC1	1.90
CC(C)C(=O)NCCN1CCC[C@@H]1Cn1nc(Cc2ccc(Cl)cc2)c2ccccc2c1=O	1.80
COCCNC(=O)CCCN1CCC[C@@H]1Cn1nc(Cc2ccc(Cl)cc2)c2ccccc2c1=O	1.00
COCCCC(=O)N(C)CCN1CCC[C@@H]1Cn1nc(Cc2ccc(Cl)cc2)c2ccccc2c1=O	2.10
CCC(=O)NCCN1CCC[C@@H]1Cn1nc(Cc2ccc(Cl)cc2)c2ccccc2c1=O	1.20
COCC(=O)NCCN1CCC[C@@H]1Cn1nc(Cc2ccc(Cl)cc2)c2ccccc2c1=O	1.50
CCCC(=O)NCCN1CCC[C@@H]1Cn1nc(Cc2ccc(Cl)cc2)c2ccccc2c1=O	1.90
CCCNC(=O)CCCN1CCC[C@@H]1Cn1nc(Cc2ccc(Cl)cc2)c2ccccc2c1=O	1.50

INPUT: I would be grateful if you could share the reported log10 of Ki for COCCC(=O)NCCN1CCC[C@@H]1Cn1nc(Cc2ccc(Cl)cc2)c2ccccc2c1=O .
OUTPUT: 1.80

====

Assay: Ratio of drug level in rat brain to blood at 1 mg/kg, iv bolus dose measured after 5 mins
observable: Kp at 5 min
API doc: respond with a numeric literal and nothing else, no unit.

INPUT: I would be grateful if you could share the reported Kp at 5 min for COCCCC(=O)NCCN1CCC[C@@H]1Cn1nc(Cc2ccc(Cl)cc2)c2ccccc2c1=O.O=C(O)C(F)(F)F .
OUTPUT: 0.18

====

Molecular target: Alpha-1A adrenergic receptor (Homo sapiens, UniProt P35348)
Sequence (P35348 whole entry): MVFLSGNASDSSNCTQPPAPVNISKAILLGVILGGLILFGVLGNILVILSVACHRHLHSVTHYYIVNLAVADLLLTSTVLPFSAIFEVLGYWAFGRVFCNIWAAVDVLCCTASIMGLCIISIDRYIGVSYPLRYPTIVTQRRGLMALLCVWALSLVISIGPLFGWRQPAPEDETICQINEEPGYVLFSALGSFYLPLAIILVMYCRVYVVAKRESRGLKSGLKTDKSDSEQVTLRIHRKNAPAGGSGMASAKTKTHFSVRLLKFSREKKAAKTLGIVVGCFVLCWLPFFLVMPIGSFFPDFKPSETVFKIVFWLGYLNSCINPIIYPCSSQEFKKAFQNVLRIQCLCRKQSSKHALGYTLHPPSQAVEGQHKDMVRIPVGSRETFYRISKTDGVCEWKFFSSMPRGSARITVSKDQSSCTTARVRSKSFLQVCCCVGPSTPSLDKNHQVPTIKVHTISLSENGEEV
Assay: Antagonist activity against recombinant human adrenergic alpha1A receptor expressed in Rat1 cells incubated for 30 mins by FLIPR analysis
Measured Ki by item
Value expressed in nM; do not type the unit.

Example entries begin here.
CCC(=O)NCCN1CCC[C@@H]1Cn1nc(Cc2ccc(Cl)cc2)c2ccccc2c1=O	15.8
CCCNC(=O)CCCN1CCC[C@@H]1Cn1nc(Cc2ccc(Cl)cc2)c2ccccc2c1=O	10
COCC(=O)NCCN1CCC[C@@H]1Cn1nc(Cc2ccc(Cl)cc2)c2ccccc2c1=O	50.1
CCCC(=O)NCCN1CCC[C@@H]1Cn1nc(Cc2ccc(Cl)cc2)c2ccccc2c1=O	31.6
O=C(NCCN1CCC[C@@H]1Cn1nc(Cc2ccc(Cl)cc2)c2ccccc2c1=O)C1CCCC1	79.4

INPUT: I would be grateful if you could share the reported Ki for O=C(NCCN1CCC[C@@H]1Cn1nc(Cc2ccc(Cl)cc2)c2ccccc2c1=O)C1CCOCC1 .
OUTPUT: 200

INPUT: I would be grateful if you could share the reported Ki for COCCNC(=O)CCCN1CCC[C@@H]1Cn1nc(Cc2ccc(Cl)cc2)c2ccccc2c1=O .
OUTPUT: 6.31

INPUT: I would be grateful if you could share the reported Ki for COCCC(=O)NCCN1CCC[C@@H]1Cn1nc(Cc2ccc(Cl)cc2)c2ccccc2c1=O .
OUTPUT: 7.94

INPUT: I would be grateful if you could share the reported Ki for COCCCC(=O)N(C)CCN1CCC[C@@H]1Cn1nc(Cc2ccc(Cl)cc2)c2ccccc2c1=O .
OUTPUT: 31.6

INPUT: I would be grateful if you could share the reported Ki for CC(C)C(=O)NCCN1CCC[C@@H]1Cn1nc(Cc2ccc(Cl)cc2)c2ccccc2c1=O .
OUTPUT: 3.98
